Below, each entry is listed with its recorded Ratio CC50/IC50.
test: Selectivity index, ratio of CC50 for human HepG2(2.2.15) cells to IC50 for Hepatitis B virus-infected human HepG2(2.2.15) cells assessed as inhibition of HBsAg secretion; type: functional
property.label: Ratio CC50/IC50

molecule	property.label	censoring.operator	meas.value
CCCCCCCCCCCCCCC/C=C/C=C/C(=O)NCC(C)C	Ratio CC50/IC50	=	2.7
O=C(/C=C/CCCC[C@H](O)[C@H](O)c1ccc2c(c1)OCO2)N1CCCCC1 (relative stereo)	Ratio CC50/IC50	=	2.5
O=C(/C=C/CCCC[C@@H](O)[C@H](O)c1ccc2c(c1)OCO2)N1CCCCC1 (relative stereo)	Ratio CC50/IC50	=	1.9
O=C(/C=C/C=C/c1ccc2c(c1)OCO2)N1CCCCC1	Ratio CC50/IC50	=	15.7
Nc1ccn([C@@H]2CS[C@H](CO)O2)c(=O)n1	Ratio CC50/IC50	=	1.1
CC(C)CNC(=O)/C=C/C=C/CCCCCC/C=C/c1ccc2c(c1)OCO2	Ratio CC50/IC50	>	3

----------
test: Cytotoxicity against human HepG2(2.2.15) cells; assay type: cell-based
# key: entry, value: CC50
property.label: CC50 (µM)

molecule	property.label	scale.unit	censoring.operator	meas.value
COc1cc(CC/C=C/C(=O)N2CCCCC2)ccc1O	CC50	µM	>	2700
CCCCCCCCCCCCCCC/C=C/C=C/C(=O)NCC(C)C	CC50	µM	=	1580
CC(C)CNC(=O)/C=C/C=C/c1ccc2c(c1)OCO2	CC50	µM	=	320
O=C(/C=C/C=C/c1ccc2c(c1)OCO2)N1CCCCC1	CC50	µM	=	2350
O=C1C=CCCN1 [5,6-DIHYDRO-2(1H)-PYRIDINONE]	CC50	µM	=	9900
O=C(/C=C/CCCC[C@H](O)[C@H](O)c1ccc2c(c1)OCO2)N1CCCCC1 (relative stereo)	CC50	µM	=	320
CC(CC(=O)O)(CC(=O)O)OC[C@H]1O[C@@H](OC/C=C/c2ccccc2)[C@H](O)[C@@H](O)[C@@H]1O [LONGUMOSIDE B]	CC50	µM	>	3750
CC(C)CNC(=O)/C=C/C=C/CCCCCC/C=C/c1ccc2c(c1)OCO2	CC50	µM	=	150
O=C1NCC[C@H](O)[C@H]1O	CC50	µM	>	1220
O=C(/C=C/CCCC[C@@H](O)[C@H](O)c1ccc2c(c1)OCO2)N1CCCCC1 (relative stereo)	CC50	µM	=	210
